Biological target: human recombinant HDAC6 (Homo sapiens, UniProt Q9UBN7)
Construct: purchased Calbiochem 382180
Sequence (Q9UBN7 whole entry): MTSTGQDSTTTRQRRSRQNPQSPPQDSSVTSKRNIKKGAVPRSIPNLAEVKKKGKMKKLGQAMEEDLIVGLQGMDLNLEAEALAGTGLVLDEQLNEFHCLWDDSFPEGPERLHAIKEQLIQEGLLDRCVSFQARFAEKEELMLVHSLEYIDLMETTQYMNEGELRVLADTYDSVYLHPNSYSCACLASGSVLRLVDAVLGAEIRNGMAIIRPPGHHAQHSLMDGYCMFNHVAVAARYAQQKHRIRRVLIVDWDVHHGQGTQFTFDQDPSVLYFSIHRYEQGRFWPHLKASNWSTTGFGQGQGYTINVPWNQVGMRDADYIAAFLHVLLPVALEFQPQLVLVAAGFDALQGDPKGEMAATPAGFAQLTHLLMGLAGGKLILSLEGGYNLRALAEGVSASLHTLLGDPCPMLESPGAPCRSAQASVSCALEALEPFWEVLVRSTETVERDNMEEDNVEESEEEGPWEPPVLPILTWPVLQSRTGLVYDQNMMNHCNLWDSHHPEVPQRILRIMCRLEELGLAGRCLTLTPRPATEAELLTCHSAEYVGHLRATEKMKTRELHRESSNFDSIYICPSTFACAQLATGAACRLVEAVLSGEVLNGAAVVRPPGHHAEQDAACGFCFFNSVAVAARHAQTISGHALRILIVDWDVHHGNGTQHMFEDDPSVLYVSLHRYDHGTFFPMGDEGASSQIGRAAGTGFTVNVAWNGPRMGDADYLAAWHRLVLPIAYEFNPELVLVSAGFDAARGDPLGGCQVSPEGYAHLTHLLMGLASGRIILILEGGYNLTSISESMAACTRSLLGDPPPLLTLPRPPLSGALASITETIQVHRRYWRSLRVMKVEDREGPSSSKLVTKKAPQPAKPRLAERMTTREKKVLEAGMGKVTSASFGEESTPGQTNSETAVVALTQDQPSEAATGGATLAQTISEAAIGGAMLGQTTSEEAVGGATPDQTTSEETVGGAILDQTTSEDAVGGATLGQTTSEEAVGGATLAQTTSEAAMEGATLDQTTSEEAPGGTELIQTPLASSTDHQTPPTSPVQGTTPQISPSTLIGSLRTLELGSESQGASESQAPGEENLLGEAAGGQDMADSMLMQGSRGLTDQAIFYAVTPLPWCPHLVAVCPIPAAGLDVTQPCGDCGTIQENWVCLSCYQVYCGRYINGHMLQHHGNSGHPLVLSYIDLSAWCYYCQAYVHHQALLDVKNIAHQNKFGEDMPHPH
Assay: HDAC6 enzyme activity inhibition assay (HDAC Fluorimetric Drug Discovery Kit)
Assay type: biochemical
Conditions: HDAC1 vs HDAC6

{"columns": ["smiles code", "HDAC6 selectivity (fold)"],
 "data": [
  ["O=S(=O)(CCN1CCC[C@H]1CO)N(Cc1ccc(-c2nnc(C(F)F)o2)cc1)c1ccccc1", 2849],
  ["COc1ccc(N(Cc2ccc(-c3nnc(C(F)F)o3)cn2)S(C)(=O)=O)cc1", 4348],
  ["CCn1ncc2ccc(N(Cc3ccc(-c4nnc(C(F)F)o4)cc3)S(C)(=O)=O)cc21", 1466],
  ["C[C@@H]1CN(CCS(=O)(=O)N(Cc2ccc(-c3nnc(C(F)F)o3)cc2)c2ccccc2)C[C@H](C)N1C", 7254],
  ["O=S(=O)(CCN1CCCCC1)N(Cc1ccc(-c2nnc(C(F)F)o2)cc1)c1ccccc1", 1041],
  ["O=S(=O)(CCN1CCN(c2ccccn2)CC1)N(Cc1ccc(-c2nnc(C(F)F)o2)cc1)c1ccccc1", 844],
  ["O=S(=O)(CCN1CCN(c2ccccc2)CC1)N(Cc1ccc(-c2nnc(C(F)F)o2)cc1)c1ccccc1", 319]
]}

----------
Molecular target: human recombinant HDAC6 (Homo sapiens)
Construct: purchased Calbiochem 382180
Assay: HDAC6 enzyme activity inhibition assay (HDAC Fluorimetric Drug Discovery Kit)
Assay type: biochemical
Settings: HDAC1 vs HDAC6
Use met when the recorded HDAC6 selectivity (fold) is no lower than 1000 fold; use not met when it is lower.

{"columns": ["compound", "class name"],
 "data": [
  ["CC(C)N1Cc2ccc(N(Cc3ccc(-c4nnc(C(F)F)o4)cn3)S(C)(=O)=O)cc2C1 [Compound 11734]", "not met"],
  ["CCS(=O)(=O)N(Cc1ccc(-c2nnc(C(F)(F)F)o2)cn1)c1ccccc1 [Compound 11430]", "not met"],
  ["CS(=O)(=O)N(Cc1ccc(-c2nnc(C(F)F)o2)cc1)Cc1ccc(-c2nnc(C(F)F)o2)cc1 [Compound 11186]", "not met"],
  ["CC(C)N1CC(N2CCC(S(=O)(=O)N(Cc3ccc(-c4nnc(C(F)F)o4)cc3)c3cccc(Cl)c3)CC2)C1 [Compound 11778]", "met"],
  ["CN1CCC(S(=O)(=O)N(Cc2ccc(-c3nnc(C(F)F)o3)cc2F)c2ccccc2)CC1 [Compound 11372]", "met"],
  ["O=C(CN1CCN(CCS(=O)(=O)N(Cc2ccc(-c3nnc(C(F)F)o3)cc2)c2ccccc2)CC1)N1CCOCC1 [Compound 11751]", "met"],
  ["CN1CC(N2CCC(S(=O)(=O)N(Cc3ccc(-c4nnc(C(F)F)o4)cc3F)c3ccc(F)c(Cl)c3)CC2)C1 [Compound 11451]", "met"],
  ["CCS(=O)(=O)N(Cc1ccc(-c2nnc(C(F)(F)F)o2)cn1)c1ccc(F)c(Cl)c1 [Compound 11429]", "not met"],
  ["O=S(=O)(C1CCN([C@H]2CC[C@H](F)CC2)CC1)N(Cc1ccc(-c2nnc(C(F)F)o2)cn1)c1cccc(Cl)c1 [Compound 11727]", "not met"],
  ["O=S(=O)(CCN1Cc2cccc3cccc(c23)C1)N(Cc1ccc(-c2nnc(C(F)F)o2)cc1)c1ccccc1 [Compound 11843]", "not met"],
  ["CCS(=O)(=O)N(Cc1ccc(-c2nnc(C(F)F)o2)cn1)c1ccc(Cl)c(Cl)c1 [Compound 11507]", "met"],
  ["O=S(=O)(CCCN1CCC(F)(F)C1)N(Cc1ccc(-c2nnc(C(F)F)o2)cn1)c1ccccc1 [Compound 11719]", "met"],
  ["O=S(=O)(CCCN1CCOCC1)N(Cc1ccc(-c2nnc(C(F)F)o2)cc1)c1ccc(F)c(Cl)c1 [Compound 11723]", "met"],
  ["Cc1cccc(N(Cc2ccc(-c3nnc(C(F)F)o3)cn2)S(=O)(=O)C2CCN([C@H]3CC[C@@H](C(F)(F)F)CC3)CC2)c1 [Compound 11691]", "not met"],
  ["CS(=O)(=O)N(Cc1ccc(-c2nnc(C(F)F)o2)cc1)c1ncco1 [Compound 11741]", "not met"],
  ["CN(C)[C@H]1CCN(CCS(=O)(=O)N(Cc2ccc(-c3nnc(C(F)F)o3)cc2)c2ccccc2)C1 [Compound 11755]", "met"],
  ["CCS(=O)(=O)N(Cc1ccc(-c2nnc(C(F)F)o2)cn1)c1cccc2c1CN(C)C2 [Compound 11712]", "not met"],
  ["CS(=O)(=O)N1CCN(CCS(=O)(=O)N(Cc2ccc(-c3nnc(C(F)F)o3)cc2F)c2ccc(F)c(Cl)c2)CC1 [Compound 11554]", "met"],
  ["COc1cccc(N(Cc2ccc(-c3nnc(C(F)(F)F)o3)cc2F)S(C)(=O)=O)c1 [Compound 11179]", "not met"],
  ["O=C(CO)N1CC(N2CCC(S(=O)(=O)N(Cc3ccc(-c4nnc(C(F)F)o4)cc3)c3cccc(Cl)c3)CC2)C1 [Compound 11836]", "met"],
  ["O=S1(=O)CCC(S(=O)(=O)N(Cc2ccc(-c3nnc(C(F)F)o3)cc2F)c2cccc(F)c2)CC1 [Compound 11256]", "met"],
  ["CS(=O)(=O)N(Cc1ccc(-c2nnc(C(F)(F)F)o2)cc1F)c1ccc(C(F)(F)F)cc1 [Compound 11220]", "not met"],
  ["O=C(CO)N1CC(N2CCC(S(=O)(=O)N(Cc3ccc(-c4nnc(C(F)F)o4)cc3F)c3ccc(F)c(Cl)c3)CC2)C1 [Compound 11452]", "met"],
  ["CS(=O)(=O)N(Cc1ccc(-c2nnc(C(F)(F)F)o2)cn1)c1ccccc1 [Compound 11171]", "met"],
  ["CCS(=O)(=O)N(Cc1ccc(-c2nnc(C(F)F)o2)cn1)c1cccc(CN2CCN(C(C)=O)CC2)c1 [Compound 11388]", "met"],
  ["O=S(=O)(CCCN1CCC(F)(F)C1)N(Cc1ccc(-c2nnc(C(F)F)o2)cc1)c1ccccc1 [Compound 11706]", "not met"],
  ["CN1CCN(CCCS(=O)(=O)N(Cc2ccc(-c3nnc(C(F)F)o3)cc2)c2ccccc2)CC1 [Compound 11658]", "met"],
  ["CS(=O)(=O)N(Cc1ccc(-c2nnc(C(F)F)o2)cc1)c1ccc(Cl)cn1 [Compound 11348]", "not met"]
]}

These measurements were taken from patent US10538498B2.
